test: self-splicing fitness, log relative to wild type (ln ratio); higher = more splicing; Tetrahymena group I intron in knt gene, E. coli kanamycin selection, DiMSum; sequences stand for … in CUCUCU…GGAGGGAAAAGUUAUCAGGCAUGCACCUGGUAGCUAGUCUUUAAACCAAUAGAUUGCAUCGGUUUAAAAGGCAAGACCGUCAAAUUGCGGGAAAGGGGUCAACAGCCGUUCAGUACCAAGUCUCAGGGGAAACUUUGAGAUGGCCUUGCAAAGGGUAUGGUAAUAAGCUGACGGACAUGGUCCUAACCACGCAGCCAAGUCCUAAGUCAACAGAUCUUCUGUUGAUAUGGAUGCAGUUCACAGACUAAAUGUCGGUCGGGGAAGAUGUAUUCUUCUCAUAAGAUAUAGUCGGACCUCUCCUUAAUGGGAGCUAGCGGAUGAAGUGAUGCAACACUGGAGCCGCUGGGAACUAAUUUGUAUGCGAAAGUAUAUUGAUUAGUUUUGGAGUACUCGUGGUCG; settings: 30 °C;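 further: selection with 25 µg/mL kanamycin versus none on LB agar overnight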
# self-splicing fitness (ln) >= -3 gives true, anything below gives false

Req: Dear colleague, could you confirm whether `UAGUAGCAAUAUUACGGGGG` has self-splicing fitness (ln) at or above -3?
Resp: false

Req: Could you verify whether the entry `CAUUAGCAAUAUUACGCCCA` shows self-splicing fitness (ln) of no less than -3?
Resp: true

Req: Quick check, self-splicing fitness (ln) >= -3? `CGACAGCAAUAUUACGAAAC`
Resp: false

Req: I'd appreciate it if you could say whether `CGCCAGCAAUAUUACGUGAU` has self-splicing fitness (ln) at least equal to -3.
Resp: false

Req: Check the entry `GGUCAGCAAUAUUACGUUCU` : does self-splicing fitness (ln) equal or exceed -3?
Resp: true

Req: Could you tell me if the measured self-splicing fitness (ln) of `AGAUAGCAAUAUUACGCCCA` reaches -3 or more?
Resp: true

* * *

test: self-splicing fitness, log relative to wild type (ln ratio); higher = more splicing; Tetrahymena group I intron in knt gene, E. coli kanamycin selection, DiMSum; sequences stand for … in CUCUCU…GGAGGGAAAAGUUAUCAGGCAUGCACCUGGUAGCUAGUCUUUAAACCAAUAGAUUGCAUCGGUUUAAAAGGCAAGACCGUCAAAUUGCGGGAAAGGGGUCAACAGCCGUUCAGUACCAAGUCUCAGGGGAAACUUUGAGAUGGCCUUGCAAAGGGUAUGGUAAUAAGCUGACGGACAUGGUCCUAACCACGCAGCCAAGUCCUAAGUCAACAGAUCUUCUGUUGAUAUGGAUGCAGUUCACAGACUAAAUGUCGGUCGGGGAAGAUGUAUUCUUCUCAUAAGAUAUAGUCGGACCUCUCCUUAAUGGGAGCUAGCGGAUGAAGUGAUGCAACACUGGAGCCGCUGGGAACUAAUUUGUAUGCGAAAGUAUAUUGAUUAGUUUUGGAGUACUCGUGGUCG; conditions: 37 °C
# self-splicing fitness (ln) >= -0.5 gives 1, anything below gives -1

Req: Please indicate if the recorded self-splicing fitness (ln) for `CACCAGCAAUAUUACGUUAG` meets or exceeds -0.5.
Resp: 1

Req: Evaluate `ACGCAGCAAUAUUACGCAUA` : self-splicing fitness (ln) at minimum -0.5?
Resp: -1

Req: Confirm if self-splicing fitness (ln) reported for the sequence `AGAUAGCAAUAUUACGUGCC` is -0.5 or above.
Resp: -1

Req: Determine whether this sequence has self-splicing fitness (ln) no lower than -0.5: `CCCAAGCAAUAUUACGUUCA`
Resp: -1

Req: Evaluate `AUACAGCAAUAUUACGUUGU` : self-splicing fitness (ln) at minimum -0.5?
Resp: -1

Req: Determine whether measured self-splicing fitness (ln) meets or exceeds -0.5 for `ACCUAGCAAUAUUACGCACG`
Resp: 1

* * *

test: self-splicing fitness, log relative to wild type (ln ratio); higher = more splicing; Tetrahymena group I intron in knt gene, E. coli kanamycin selection, DiMSum; sequences stand for … in CUCUCU…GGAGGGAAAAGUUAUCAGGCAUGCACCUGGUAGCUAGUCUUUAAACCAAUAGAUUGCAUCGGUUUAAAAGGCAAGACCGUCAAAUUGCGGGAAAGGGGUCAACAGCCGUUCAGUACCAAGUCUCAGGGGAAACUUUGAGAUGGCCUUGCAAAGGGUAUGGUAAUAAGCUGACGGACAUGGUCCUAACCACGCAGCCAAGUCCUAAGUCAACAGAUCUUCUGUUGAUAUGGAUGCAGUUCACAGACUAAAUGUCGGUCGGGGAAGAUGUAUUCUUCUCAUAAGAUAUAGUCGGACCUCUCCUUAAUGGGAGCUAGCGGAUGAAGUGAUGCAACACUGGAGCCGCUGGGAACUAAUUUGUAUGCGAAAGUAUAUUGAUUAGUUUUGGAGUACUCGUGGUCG; conditions: 37 °C
Provide the reported self-splicing fitness (ln) of each item.
Answer as a number with no unit attached.

Req: What measured self-splicing fitness (ln) goes with `CACUAGCAAUAUUACGGCUC` ?
Resp: -1.79

Req: # query: self-splicing fitness (ln) of entry `GAUGAGCAAUAUUACGCCGU`
Resp: -2.33

Req: I have this sequence here, `UAAUAGCAAUAUUACGUACG` , and I need its recorded self-splicing fitness (ln).
Resp: -1.16

Req: # query: self-splicing fitness (ln) of entry `AGAAAGCAAUAUUACGAUUU`
Resp: 0.286

Req: Given `UCGAAGCAAUAUUACGGGCG` , state its recorded self-splicing fitness (ln).
Resp: -0.219

Req: What measured self-splicing fitness (ln) goes with `CCACAGCAAUAUUACGGUUU` ?
Resp: -2.8

Req: Request the reported self-splicing fitness (ln) associated with `UCGGAGCAAUAUUACGAACA`
Resp: -1.25

Req: Dear colleague, I am looking for the recorded self-splicing fitness (ln) of the following sequence: `GUCCAGCAAUAUUACGUGGU`
Resp: -1.03

Req: Item under review: `GUUGAGCAAUAUUACGAUUG` . Reported self-splicing fitness (ln)?
Resp: -1.87

Req: self-splicing fitness (ln) for `CCCUAGCAAUAUUACGCAUA` ?
Resp: -1.99

Req: Fill in: self-splicing fitness (ln) of `UCGAAGCAAUAUUACGCUGG` is ___
Resp: -2.04

* * *

Could you please report measured self-splicing fitness (ln) for the items listed next?
assay: self-splicing fitness, log relative to wild type (ln ratio); higher = more splicing; Tetrahymena group I intron in knt gene, E. coli kanamycin selection, DiMSum; sequences stand for … in CUCUCU…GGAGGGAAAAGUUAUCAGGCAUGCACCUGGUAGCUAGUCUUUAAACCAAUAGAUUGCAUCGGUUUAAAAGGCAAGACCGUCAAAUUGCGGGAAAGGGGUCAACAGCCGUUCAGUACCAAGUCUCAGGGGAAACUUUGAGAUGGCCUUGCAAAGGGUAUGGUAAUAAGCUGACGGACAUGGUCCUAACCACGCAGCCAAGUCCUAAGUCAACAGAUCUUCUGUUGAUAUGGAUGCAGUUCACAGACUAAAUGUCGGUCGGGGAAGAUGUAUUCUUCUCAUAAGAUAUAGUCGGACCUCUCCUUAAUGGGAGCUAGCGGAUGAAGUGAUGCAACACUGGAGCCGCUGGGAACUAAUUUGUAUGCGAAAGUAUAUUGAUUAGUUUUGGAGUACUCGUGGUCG; details: 30 °C
Lab note: write the figure by itself, no unit.

Req: Query (sequence): `CCCAAGCAAUAUUACGUUGA` ; field requested: self-splicing fitness (ln)
Resp: -3.74

Req: May I ask what self-splicing fitness (ln) has been recorded for `UAGGAGCAAUAUUACGUGCA` ?
Resp: -1.88

Req: Quick check: self-splicing fitness (ln) of `UCAAAGCAAUAUUACGUCGC` ?
Resp: -3.36

Req: For the sequence shown here, `GCACAGCAAUAUUACGAUCC` , give the reported self-splicing fitness (ln).
Resp: -0.381

* * *

experiment: self-splicing fitness, log relative to wild type (ln ratio); higher = more splicing; Tetrahymena group I intron in knt gene, E. coli kanamycin selection, DiMSum; sequences stand for … in CUCUCU…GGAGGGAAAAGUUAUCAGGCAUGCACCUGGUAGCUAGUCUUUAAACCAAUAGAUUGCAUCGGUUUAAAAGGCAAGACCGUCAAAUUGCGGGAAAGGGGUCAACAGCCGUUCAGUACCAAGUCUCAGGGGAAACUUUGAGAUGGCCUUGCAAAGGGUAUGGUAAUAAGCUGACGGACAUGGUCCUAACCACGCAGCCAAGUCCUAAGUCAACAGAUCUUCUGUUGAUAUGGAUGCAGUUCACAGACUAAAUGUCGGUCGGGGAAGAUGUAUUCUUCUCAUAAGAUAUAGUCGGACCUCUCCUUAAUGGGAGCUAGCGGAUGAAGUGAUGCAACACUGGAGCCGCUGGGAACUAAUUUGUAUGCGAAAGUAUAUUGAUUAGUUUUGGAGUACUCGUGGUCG; conditions: 30 °C
measure: self-splicing fitness (ln)
Give the value as a plain number.

Req: Quick one: self-splicing fitness (ln) of `AACCAGCAAUAUUACGGUGC` ?
Resp: -3.48

Req: Dear colleague, I am looking for the recorded self-splicing fitness (ln) of the following sequence: `GGAAAGCAAUAUUACGUUCU`
Resp: -3.94

Req: I'd like to know its self-splicing fitness (ln). The sequence in question is `UUGCAGCAAUAUUACGUCAA`
Resp: -1.48

Req: Which self-splicing fitness (ln) is reported for this sequence? `CAUCAGCAAUAUUACGCGCA`
Resp: -1.21

Req: Param item = `UUAGAGCAAUAUUACGAUAG` ; retrieve measured self-splicing fitness (ln).
Resp: -0.594

Req: Item `CUGAAGCAAUAUUACGAACA` has what recorded self-splicing fitness (ln)?
Resp: -2.82

Req: What measured self-splicing fitness (ln) goes with `AGAAAGCAAUAUUACGCUGC` ?
Resp: -2.38

Req: Dear colleague, I am looking for the recorded self-splicing fitness (ln) of the following sequence: `CCAGAGCAAUAUUACGAGAC`
Resp: -4.31

Req: Item `AGCCAGCAAUAUUACGGAUA` has what recorded self-splicing fitness (ln)?
Resp: -1.63

Req: Can you share its self-splicing fitness (ln)? I mean this sequence: `AGGCAGCAAUAUUACGCACG`
Resp: -0.754

Req: What value of measured self-splicing fitness (ln) is listed for `AGCCAGCAAUAUUACGAUAG` ?
Resp: -4.04

Req: Param item = `UCAUAGCAAUAUUACGCCUU` ; retrieve measured self-splicing fitness (ln).
Resp: -3.75

Req: Any idea what self-splicing fitness (ln) was measured for `UCUUAGCAAUAUUACGCCGG` ?
Resp: -1.85

Req: # input sequence: `UAGGAGCAAUAUUACGUACC` ; wanted: its self-splicing fitness (ln)
Resp: -2.66

Req: I have this sequence here, `AGACAGCAAUAUUACGACCA` , and I need its recorded self-splicing fitness (ln).
Resp: -0.623

Req: Reported self-splicing fitness (ln) for `AUUGAGCAAUAUUACGCUUA` : what is it?
Resp: -2.75

Req: What measured self-splicing fitness (ln) goes with `GACUAGCAAUAUUACGUCGU` ?
Resp: -3.23

Req: Which value of self-splicing fitness (ln) has been reported for `GGUUAGCAAUAUUACGAUGC` in the records?
Resp: -0.237

Req: Looking for the measured self-splicing fitness (ln) of `GCAGAGCAAUAUUACGCGAA` , can you help?
Resp: -4.38

Req: Entry under review: `AUGAAGCAAUAUUACGUUCU` . Reported self-splicing fitness (ln)?
Resp: -0.34

Req: Using the record for `UGCAAGCAAUAUUACGUCUA` , report its self-splicing fitness (ln).
Resp: -0.304

Req: Param item = `UAGUAGCAAUAUUACGGUAU` ; retrieve measured self-splicing fitness (ln).
Resp: -2.55

Req: Would you kindly share the measured self-splicing fitness (ln) for `GCUAAGCAAUAUUACGCAGU` ?
Resp: -3.5
